method_description: Cytotoxicity against human PBMC assessed as cell viability at 10 uM after 18 hrs relative to control
Type: cell-based
measurement_setup: read-out: Activity
endpoint: viability at 18 h, 10 µM

Suppose we examine the compound C/C=C/C[C@@H](C)[C@@H](O)[C@H]1C(=O)N[C@@H](CC)C(=O)N(C)C(SCCN(C)C)C(=O)N(C)[C@@H](CC(C)(C)O)C(=O)N[C@@H](C(C)C)C(=O)N(C)[C@@H](CC(C)C)C(=O)N[C@@H](C)C(=O)N[C@H](C)C(=O)N(C)[C@@H](CC(C)C)C(=O)N(C)[C@@H](CC(C)C)C(=O)N(C)[C@@H](C(C)C)C(=O)N1C (single isomer, unassigned) ; what viability at 18 h, 10 µM value has been reported?
10.9%
